Target: Glutathione reductase, mitochondrial (Homo sapiens)
Sequence (P00390 whole entry): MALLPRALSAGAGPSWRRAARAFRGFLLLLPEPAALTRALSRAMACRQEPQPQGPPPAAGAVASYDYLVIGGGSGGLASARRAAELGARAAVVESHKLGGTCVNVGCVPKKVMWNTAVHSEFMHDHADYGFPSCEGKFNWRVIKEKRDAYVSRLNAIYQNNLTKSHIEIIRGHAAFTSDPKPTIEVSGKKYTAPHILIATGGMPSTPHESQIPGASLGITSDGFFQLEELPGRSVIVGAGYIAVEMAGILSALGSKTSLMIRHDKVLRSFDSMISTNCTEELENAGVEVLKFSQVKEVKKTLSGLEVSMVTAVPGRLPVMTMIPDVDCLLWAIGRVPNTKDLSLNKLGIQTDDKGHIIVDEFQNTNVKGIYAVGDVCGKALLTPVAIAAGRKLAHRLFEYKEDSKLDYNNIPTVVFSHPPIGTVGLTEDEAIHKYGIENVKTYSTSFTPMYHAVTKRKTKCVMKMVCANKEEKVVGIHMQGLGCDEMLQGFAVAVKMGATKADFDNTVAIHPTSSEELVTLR
property.measured: IC50

compound: CN(C)CCn1c(=N)n(CC(O)c2ccc(Cl)c(Cl)c2)c2ccccc21 (stereo unspecified)
property.measured: IC50
result: > 100 µM

====

Experiment: Inhibition of Trypanosoma brucei rhodesiense trypanothione reductase
With a cut-off of 7 µM, any IC50 strictly below it is called 1; any IC50 meeting it or above is called -1.

molecule: C=CCn1c(=N)n(CCN(CC)CC)c2ccccc21
class.name: -1
--
molecule: CCN(CC)CCn1c(=N)n(CC(=O)c2ccc(-c3ccccc3)cc2)c2ccccc21
class.name: -1
--
molecule: CCN(CC)CCn1c(=N)n(CC(O)c2ccc(C)cc2)c2ccccc21 (stereo not given)
class.name: -1
--
molecule: Cc1ccc(OCC(O)Cn2c(=N)n(CCN3CCCCC3)c3ccccc32)cc1 (stereo not given)
class.name: -1
--
molecule: CC(=O)/N=c1/n(CCOc2ccccc2)c2ccccc2n1CCN1CCCCC1
class.name: -1
--
molecule: N=c1n(CCOCCOCCn2c(=N)n(Cc3ccccc3)c3ccccc32)c2ccccc2n1Cc1ccccc1
class.name: 1
--
molecule: N=c1n(CCN2CCCCC2)c2ccccc2n1CC(O)COc1ccc(Cl)cc1Cl (stereo not given)
class.name: 1
--
molecule: C=CCn1c(=N)n(CC(O)c2ccc(OCC)cc2)c2ccccc21 (stereo not given)
class.name: -1
--
molecule: N=c1n(Cc2ccccc2)c2ccccc2n1CC(O)c1ccc(Cl)cc1 (stereo not given)
class.name: -1

====

Assay: Inhibition of Trypanosoma brucei rhodesiense trypanothione reductase
pIC50: −log10 of the molar value.

compound: N=c1n(CCN2CCCCC2)c2ccccc2n1CC(O)c1ccc(Cl)c(Cl)c1 (stereo not given)
inequality.sign: =
pIC50: 5.40
//
compound: CN(C)CCn1c(=N)n(CC(O)c2ccc(Cl)c(Cl)c2)c2ccccc21 (stereo not given)
inequality.sign: =
pIC50: 5.00
//
compound: N=c1n(CCCOc2ccccc2)c2ccccc2n1CCN1CCCCC1
inequality.sign: =
pIC50: 5.15
//
compound: CCN(CC)CCn1c(=N)n(CC(O)c2ccc(Cl)c(Cl)c2)c2ccccc21 (stereo not given)
inequality.sign: =
pIC50: 5.05
//
compound: CC(C)(C)C(O)Cn1c(=N)n(CCN2CCCCC2)c2ccccc21 (stereo not given)
inequality.sign: <
pIC50: 4.00
//
compound: Cc1ccc(OCC(O)Cn2c(=N)n(CCN3CCOCC3)c3ccccc32)cc1 (stereo not given)
inequality.sign: <
pIC50: 4.00
//
compound: CCCCn1c(=N)n(CC(O)c2ccc(Br)cc2)c2ccccc21 (stereo not given)
inequality.sign: <
pIC50: 4.00
//
compound: N=c1n(CCN2CCCCC2)c2ccccc2n1CC(O)COc1ccccc1 (stereo not given)
inequality.sign: =
pIC50: 5.30
//
compound: Cc1ccc(C(O)Cn2c(=N)n(CCN(C)C)c3ccccc32)cc1 (stereo not given)
inequality.sign: =
pIC50: 4.54
//
compound: CN1CCCC(n2c(=N)n(CCOc3ccccc3)c3ccccc32)C1 (stereo not given)
inequality.sign: <
pIC50: 4.00
//
compound: Cc1ccc(C(O)Cn2c(=N)n(CCCN(C)C)c3ccccc32)cc1 (stereo not given)
inequality.sign: =
pIC50: 4.46
//
compound: Cc1ccc(C(O)Cn2c(=N)n(CCN3CCCCC3)c3ccccc32)cc1 (stereo not given)
inequality.sign: =
pIC50: 4.80
//
compound: N=c1n(CCCCCOc2ccccc2)c2ccccc2n1CCN1CCCCC1
inequality.sign: =
pIC50: 5.10
//
compound: CCN(CC)CCn1c(=N)n(CCN(CC)CC)c2ccccc21
inequality.sign: =
pIC50: 4.23
//
compound: CCN(CC)CCn1c(=N)n(CCOc2ccccc2)c2ccccc21
inequality.sign: =
pIC50: 5.10
